Tested on: waterhemp (common waterhemp, Amaranthus rudis)
experimental.details: Test C postemergence
Type: in vivo
reported.conditions: 125 g ai/ha, scale 0 to 100, 0 is no effect, 100 is complete control
Text: […]
Some compounds, each annotated with its measured Plant response rating, Waterhemp.

input.smiles | Plant response rating, Waterhemp
O=c1cccc(Oc2ncc(Cl)cn2)n1-c1ccc(C(F)(F)F)cn1 | 85
O=c1cccc(Oc2ncc(Cl)cn2)n1-c1ncc(Cl)cn1 | 70
O=c1cccc(Oc2ncc(Cl)cn2)n1-c1ccc(C(F)(F)F)cc1 | 98
O=c1cccc(Oc2ncc(Cl)cn2)n1-c1ccc(Cl)cc1 | 90

----------
Some compounds, each annotated with its measured Plant response rating, Velvetleaf.
System: velvetleaf (Abutilon theophrasti)
experimental.details: Test C postemergence
Type: in vivo
reported.conditions: 125 g ai/ha, scale 0 to 100, 0 is no effect, 100 is complete control

compound | Plant response rating, Velvetleaf
O=c1cccc(Oc2ncc(Cl)cn2)n1-c1ccc(Cl)cc1 [Compound 1] | 25
O=c1cccc(Oc2ncc(Cl)cn2)n1-c1ncc(Cl)cn1 [Compound 6] | 75
O=c1cccc(Oc2ncc(Cl)cn2)n1-c1ccc(C(F)(F)F)cn1 [Compound 7] | 65
O=c1cccc(Oc2ncc(Cl)cn2)n1-c1ccc(C(F)(F)F)cc1 [Compound 10] | 65
